tested on: Recombinant cyno B7-H3 (cyno)
assay info: ELISA, cyno B7-H3 coated on plate
Assignment: determine reported log10 of EC50 for the given binders.
Remember, log10 of EC50, in nM.

Examples with their reported log10 of EC50 follow.
[
  {
    "binder": "SCT-Da333 (antibody, V domains shown) VH: QVQLQQSGPELVRPGVSVKISCKGSGYTFTDYAVHWVKQSHAKSLEWIGVINTYSGNTYYNLHFKGKATMTVDKSSSTAYMELARLTSEDSAIYYCARRRGSHRDAYFDYWGQGTTLTVSS VL: DIVMTQSHKFMSTSVGDRVSITCRASQDVSTAVAWYQQKPGQSPKLLIYSASYRYTGVPDRFTVSGSGTDFTFTISSVQAEDLAVYYCQQHYSTPWTFGGGTKLEIK",
    "log10 of EC50": 0.48
  },
  {
    "binder": "SCT-Da192 (antibody, V domains shown) VH: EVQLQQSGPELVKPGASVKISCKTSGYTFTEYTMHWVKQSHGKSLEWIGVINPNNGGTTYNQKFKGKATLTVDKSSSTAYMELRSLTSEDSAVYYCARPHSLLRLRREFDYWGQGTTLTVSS VL: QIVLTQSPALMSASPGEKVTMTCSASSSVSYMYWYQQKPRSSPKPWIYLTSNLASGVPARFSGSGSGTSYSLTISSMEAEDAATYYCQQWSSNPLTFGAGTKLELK",
    "log10 of EC50": -1.75
  },
  {
    "binder": "SCT-Da148 (antibody, V domains shown) VH: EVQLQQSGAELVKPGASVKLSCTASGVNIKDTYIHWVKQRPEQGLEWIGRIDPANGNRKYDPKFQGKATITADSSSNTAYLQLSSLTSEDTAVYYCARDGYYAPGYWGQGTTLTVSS VL: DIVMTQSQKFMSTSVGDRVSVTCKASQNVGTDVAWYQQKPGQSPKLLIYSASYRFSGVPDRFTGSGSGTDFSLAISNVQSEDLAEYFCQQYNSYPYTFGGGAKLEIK",
    "log10 of EC50": -1.94
  },
  {
    "binder": "SCT-Da250 (antibody, V domains shown) VH: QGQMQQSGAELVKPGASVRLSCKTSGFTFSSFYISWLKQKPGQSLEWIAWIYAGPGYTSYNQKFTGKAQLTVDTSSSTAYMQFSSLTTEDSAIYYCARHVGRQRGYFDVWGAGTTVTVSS VL: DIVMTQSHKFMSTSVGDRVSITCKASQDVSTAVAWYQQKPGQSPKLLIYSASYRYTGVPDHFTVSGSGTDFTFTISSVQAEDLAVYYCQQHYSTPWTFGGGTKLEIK",
    "log10 of EC50": -1.63
  }
]

Here is another binder to look at.
Task: Which log10 of EC50 value belongs to SCT-Da182 (antibody, V domains shown) VH: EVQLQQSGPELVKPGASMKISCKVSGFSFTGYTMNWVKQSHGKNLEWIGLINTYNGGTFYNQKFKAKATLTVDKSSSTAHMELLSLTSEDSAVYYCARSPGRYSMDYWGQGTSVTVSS VL: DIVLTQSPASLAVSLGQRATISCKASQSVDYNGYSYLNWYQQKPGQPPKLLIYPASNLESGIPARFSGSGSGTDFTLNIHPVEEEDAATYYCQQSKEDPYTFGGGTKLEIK ?
Result: -2.05
